METHOD: Human HepG2 cell viability assay in 384 well format
Assay type: toxicity, cell-based
Design: dose 125 nL, time 70.5 hour; concentration not given beside the values
CONDITION SUMMARY: HepG2 cells, read-out: Inhibition
MEASUREMENT KIND: cytotoxicity at 70.5 h (%)

1) c1ccc(-c2noc(CCCN3CCCC3Cn3cccn3)n2)cc1 (configuration not stated)	10.7
2) COc1ccccc1CC(=O)N1CCCC(c2nccn2CC(N)=O)C1 (configuration not stated)	23.1
3) CNc1ncc(CN(C)C(=O)c2cccc(CC3CCNCC3)c2)cn1	35
4) Cc1csc(NC(=O)C2CSCCC(=O)N2)n1 (configuration not stated)	-0.709
5) CNS(=O)(=O)c1ccc(C(=O)Nc2ccc3c(c2)C(=O)NC3)cc1	1.61
6) CC(C)NC1CCc2c(ccc(=O)n2CCN2CCOCC2)C1 (configuration not stated)	-6.6
7) CCN(C)c1ncnc2c1CCN(CC1CCOC1)CC2 (configuration not stated)	-8.27
8) Cc1ccc(C(=O)Nc2c(C(=O)N(C)C)nn(C)c2C)cc1C	-4.41
9) COc1cccc2c1N(Cc1noc(C(C)(C)C)n1)CCC2	18.5
10) Cc1cccc(OCC2CCCN(C(=O)CN(C)C3CCNCC3)C2)c1 (configuration not stated)	11.3
11) COC(=O)c1ccoc1COC(=O)CCc1ccc(OC)c(OC)c1	-15.4
12) N[C@H]1CN(CCCOc2ccccc2)C[C@@H]1C1CC1	-3.74

* * *

Property: cytotoxicity at 70.5 h; scope: individual compounds
METHOD: Human HepG2 cell viability assay in 384 well format
Assay type: toxicity, cell-based
Parameters: dose 125 nL, time 70.5 hour; concentration not given beside the values
CONDITION SUMMARY: HepG2 cells, read-out: Inhibition
MEASUREMENT KIND: cytotoxicity at 70.5 h (%)

1. c1cnc(N2CCC3(CN(CC4CCOC4)C3)C2)nc1 (configuration not stated)	24.1
2. CSCCCN1CCC[C@]2(C(=O)O)CN(c3cnccn3)CC[C@@H]12	26.4
3. O=C(c1cccc(CO)n1)N1CCOC(c2ccc(Cl)c(Cl)c2)C1 (configuration not stated)	-9.7
4. COC(=O)c1ccc(C(=O)N2CCc3c(ncn3C3CC3)C2)cc1	-5.37
5. Cc1nc(CCNC(=O)NCc2cccc(N(C)C)n2)cs1	-12.8
6. O=C([C@@H]1CCCO1)N1CCC(Cn2cc(-c3ccsc3)nn2)CC1	-7.52
7. Cc1nn(C2CCS(=O)(=O)C2)c(O)c1Cc1ccccc1Cl (configuration not stated)	-18.5
8. Cc1csc(N2CCCN(Cc3noc(C)n3)CC2)n1	-1.5
9. Cc1c(CNC(=O)C2CCCN2C(=O)C2CC2)oc2ccccc12 (configuration not stated)	-7.22
10. Cc1ccc(OCCN(C)C(=O)CCCC(N)=O)c(C)c1	-5.93
11. CC(C)(C)C(O)CN1CCN(Cc2nccn2CC(F)(F)F)CC1 (configuration not stated)	17.5
12. O=C(O)c1ccn(COc2c(Cl)cccc2Cl)n1	-7.49

* * *

Measured cytotoxicity at 70.5 h of individual entries
METHOD: Human HepG2 cell viability assay in 384 well format
Format: toxicity, cell-based
Design: dose 125 nL, time 70.5 hour; concentration not given beside the values
CONDITION SUMMARY: HepG2 cells, read-out: Inhibition
MEASUREMENT KIND: cytotoxicity at 70.5 h (%)

1) CCNc1ncc(CN2CCOC(Cc3cccc(OC)c3)C2)cn1 (stereo not drawn)	-2.81
2) CN(C)c1cc(C2CCCN2C(=O)c2ccc(=O)n(C)c2)ccn1 (stereo not drawn)	-7.99
3) COc1ccccc1OC(C)CNC(=O)c1cnc[nH]1 (stereo not drawn)	-21.2
4) Cc1cnn(CC2CCCCN2C(=O)Cc2c(C)noc2Cl)c1 (stereo not drawn)	24.1
5) CNc1cccc(C2CCCN(C(=O)c3ccncc3)C2)n1 (stereo not drawn)	-2.97
6) Cc1cccc(NC(=O)c2cnc(C3CCCNC3)cn2)n1 (stereo not drawn)	-2.31
7) Cc1cc(C)c2[nH]c(=O)c(CN3CCCC4(C3)CN(C)C(=O)O4)cc2c1 (stereo not drawn)	-8.68
8) Cc1cnn(C2CCCN(C(=O)c3ccc4c(c3)CCC4)C2)c1 (stereo not drawn)	-6.05
9) O=C1C[C@H]2CC[C@@H](CN1)N2C(=O)CCc1ccsc1	-9.38
10) CN(C)C[C@H]1OC[C@@H]2CCN(C(=O)c3ccco3)C[C@@H]21	-1.52
11) O=C(CCS(=O)(=O)C1CCCC1)NCCc1cccc(O)c1	19.9
12) COCC1CCN(S(=O)(=O)N2C[C@@H](C)[C@](O)(C3CC3)C2)CC1	-1.25
13) Cc1ccc(OC2(C(=O)O)CCN(C/C=C/c3ccco3)CC2)c(C)n1	-7.06
14) CC(C(=O)N1CCc2sccc2C1)N1CCC(N2CCCC2)CC1 (stereo not drawn)	0.91
15) Cc1sc(C(=O)O)cc1S(=O)(=O)Nc1c(F)cccc1-n1cccn1	18.5
16) Cc1oncc1C(=O)N1CC[C@H]2[C@@H]1CCC(=O)N2CC1CCOCC1	-1.77
17) COCCOc1ccc(CNc2nc3ccccc3nc2N)cn1	-3.46
18) CCNc1cc2c(nn1)CCN(C(=O)Cc1noc3ccccc13)C2	-12.5
19) Cc1nccn1CC1CCCN1S(=O)(=O)Cc1ccc(F)cc1 (stereo not drawn)	-0.149
20) CCCc1noc(CN2CCCC2c2noc(C3CC3)n2)n1 (stereo not drawn)	-4.28
21) CC(C1CCN(Cc2ccc(OC(F)F)cc2)CC1)N1CCOCC1 (stereo not drawn)	-17.4
22) O=S(=O)(Nc1ccc(N2CCOCC2)cn1)c1ccc(F)cc1	9.02
23) CC1CN(Cc2ccccn2)CCN1c1ccc2nncn2n1 (stereo not drawn)	-0.942

Each recorded value in this set is attributed to ChEMBL document CHEMBL3507680.
